- System: blood coagulation
- assay.notes: PT and aPTT assay in cynomolgus monkeys (Example 46)
- Format: in vivo
- run.parameters: Day 45; platelet poor plasma; relative to PBS group
Strand notation (5' to 3'): a small letter for the sugar, then the base; units joined by * are phosphorothioate-linked, units joined directly phosphodiester-linked; [ ] holds rarer units or linkages, { } end groups; capitals alone tell only the bases. e = 2'-O-(2-methoxyethyl) (MOE); [5mC] = 5-methylcytosine; d = 2'-deoxy (DNA)
readout: aPTT ratio relative to PBS group

* ISIS 416858: MOE gapmer, nucleobases 1275 to 1318 of SEQ ID NO: 1 (Table 8) (antisense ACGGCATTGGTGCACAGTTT; MOE gapmer, wing and gap sizes not given here) | 1.49
* ISIS 445531: 5-8-5 or 6-8-6 MOE microwalk gapmer (Table 44) (antisense eG*eG*e[5mC]*eA*eT*dT*dG*dG*dT*dG*d[5mC]*dA*d[5mC]*eA*eG*eT*eT*eT) | 1.13
* ISIS 445522: 5-8-5 or 6-8-6 MOE microwalk gapmer (Table 44) (antisense eG*e[5mC]*eA*e[5mC]*eA*dG*dT*dT*dT*d[5mC]*dT*dG*dG*e[5mC]*eA*eG*eG*e[5mC]) | 1.39
* ISIS 449711: 3-8-3, 4-8-4, 2-10-2, 3-10-3 or 4-10-4 MOE microwalk gapmer (Table 46) (antisense eA*e[5mC]*dA*dG*dT*dT*dT*d[5mC]*dT*dG*dG*d[5mC]*eA*eG) | 0.94
* ISIS 449710: 3-8-3, 4-8-4, 2-10-2, 3-10-3 or 4-10-4 MOE microwalk gapmer (Table 46) (antisense e[5mC]*eA*e[5mC]*dA*dG*dT*dT*dT*d[5mC]*dT*dG*dG*d[5mC]*eA*eG*eG) | 1.06
* ISIS 449709: 3-8-3, 4-8-4, 2-10-2, 3-10-3 or 4-10-4 MOE microwalk gapmer (Table 46) (antisense eG*e[5mC]*eA*e[5mC]*dA*dG*dT*dT*dT*d[5mC]*dT*dG*dG*d[5mC]*eA*eG*eG*e[5mC]) | 1.15
* ISIS 449707: 3-8-3, 4-8-4, 2-10-2, 3-10-3 or 4-10-4 MOE microwalk gapmer (Table 46) (antisense e[5mC]*eA*e[5mC]*eA*dG*dT*dT*dT*d[5mC]*dT*dG*dG*e[5mC]*eA*eG*eG) | 1.00
* ISIS 449708: 3-8-3, 4-8-4, 2-10-2, 3-10-3 or 4-10-4 MOE microwalk gapmer (Table 46) (antisense eA*e[5mC]*eA*dG*dT*dT*dT*d[5mC]*dT*dG*dG*e[5mC]*eA*eG) | 1.06
* ISIS 416850: MOE gapmer, nucleobases 1275 to 1318 of SEQ ID NO: 1 (Table 8) (antisense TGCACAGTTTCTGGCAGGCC; MOE gapmer, wing and gap sizes not given here) | 1.34
